# reported inhibition at 0.0001 µg/mL; entries follow
# subject.of.test: EGFR (Homo sapiens)
# Sequence (P00533 25-1210): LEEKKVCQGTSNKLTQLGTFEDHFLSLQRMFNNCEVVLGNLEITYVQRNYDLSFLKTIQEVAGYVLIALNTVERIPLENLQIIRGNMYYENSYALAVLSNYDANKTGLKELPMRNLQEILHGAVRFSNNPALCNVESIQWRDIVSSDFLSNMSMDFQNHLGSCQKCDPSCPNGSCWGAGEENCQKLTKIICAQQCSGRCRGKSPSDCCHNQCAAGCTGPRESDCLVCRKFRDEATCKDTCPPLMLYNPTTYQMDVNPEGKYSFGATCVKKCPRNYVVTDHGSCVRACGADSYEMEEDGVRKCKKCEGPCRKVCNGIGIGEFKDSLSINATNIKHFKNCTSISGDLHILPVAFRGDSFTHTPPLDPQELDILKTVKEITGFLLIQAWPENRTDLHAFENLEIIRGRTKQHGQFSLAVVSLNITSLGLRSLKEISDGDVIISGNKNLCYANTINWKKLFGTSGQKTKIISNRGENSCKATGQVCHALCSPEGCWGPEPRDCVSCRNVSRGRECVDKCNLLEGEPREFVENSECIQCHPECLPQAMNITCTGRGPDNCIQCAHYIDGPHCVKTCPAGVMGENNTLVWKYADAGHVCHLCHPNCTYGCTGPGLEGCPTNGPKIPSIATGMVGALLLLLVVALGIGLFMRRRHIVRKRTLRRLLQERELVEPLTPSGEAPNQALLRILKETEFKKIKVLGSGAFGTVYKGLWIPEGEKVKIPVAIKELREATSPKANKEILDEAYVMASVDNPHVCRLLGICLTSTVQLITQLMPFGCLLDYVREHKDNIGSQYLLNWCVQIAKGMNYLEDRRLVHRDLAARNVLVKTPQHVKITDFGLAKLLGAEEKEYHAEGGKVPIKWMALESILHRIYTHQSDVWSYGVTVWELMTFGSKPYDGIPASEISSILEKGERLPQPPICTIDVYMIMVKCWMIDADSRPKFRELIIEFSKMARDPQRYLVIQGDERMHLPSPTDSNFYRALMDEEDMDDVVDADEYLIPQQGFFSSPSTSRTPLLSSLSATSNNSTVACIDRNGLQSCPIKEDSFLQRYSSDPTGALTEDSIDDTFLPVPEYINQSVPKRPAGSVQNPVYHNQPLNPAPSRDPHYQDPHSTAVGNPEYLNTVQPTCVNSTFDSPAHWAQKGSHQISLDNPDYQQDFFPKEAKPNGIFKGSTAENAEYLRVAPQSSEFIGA
# protocol.description: In vitro EGFR enzyme inhibition assay (ELISA)
# experimental.context: read-out: EGFR %inh

{"columns": ["smiles.input", "units.label", "inhibition at 0.0001 µg/mL"],
 "data": [
  ["CC(=O)Oc1ccc2c(COC(=O)c3ccc(Cl)cc3)cc(=O)oc2c1", "%", 24],
  ["O=C(COc1ccc2c(CCl)cc(=O)oc2c1)c1ccccc1", "%", 50],
  ["COc1ccccc1C(=O)OCc1cc(=O)oc2cc(OCC(=O)c3ccccc3)ccc12", "%", 23],
  ["COc1ccccc1C(=O)OCc1cc(=O)oc2cc(OCC(=O)c3ccc(Cl)cc3)ccc12", "%", 50]
]}

###

# reported inhibition at 0.01 µg/mL; entries follow
# subject.of.test: UniProtKB P00533
# protocol.description: In vitro EGFR enzyme inhibition assay (ELISA)
# experimental.context: read-out: EGFR %inh
observable: inhibition at 0.01 µg/mL (%)

{"columns": ["smiles.input", "observable", "units.label", "reported"],
 "data": [
  ["O=C(COc1ccc2c(CCl)cc(=O)oc2c1)c1ccccc1", "inhibition at 0.01 µg/mL", "%", 90],
  ["COc1ccccc1C(=O)OCc1cc(=O)oc2cc(OCC(=O)c3ccccc3)ccc12", "inhibition at 0.01 µg/mL", "%", 76],
  ["COc1ccccc1C(=O)OCc1cc(=O)oc2cc(OCC(=O)c3ccc(Cl)cc3)ccc12", "inhibition at 0.01 µg/mL", "%", 88],
  ["CC(=O)Oc1ccc2c(COC(=O)c3ccc(Cl)cc3)cc(=O)oc2c1", "inhibition at 0.01 µg/mL", "%", 78]
]}

###

# System: MDA-MB-231
# protocol.description: MTT cytotoxicity assay, MDA-MB-231
# experimental.context: MDA, 0.4ug (log conc. -0.41)

{"columns": ["smiles.input", "units.label", "% viability"],
 "data": [
  ["CC(=O)Oc1ccc2c(COC(=O)c3ccccc3)cc(=O)oc2c1", "%", 65.76],
  ["COc1ccccc1C(=O)OCc1cc(=O)oc2cc(O)ccc12", "%", 60.769],
  ["O=C(COc1ccc2c(COC(=O)c3ccc(Cl)cc3)cc(=O)oc2c1)c1ccc(Cl)cc1", "%", 56.384],
  ["O=C(COc1ccc2c(CCl)cc(=O)oc2c1)c1ccccc1", "%", 61.18],
  ["O=C(COc1ccc2c(CCl)cc(=O)oc2c1)c1ccc(Cl)cc1", "%", 73.67],
  ["O=C(COc1ccc2c(COC(=O)c3ccccc3)cc(=O)oc2c1)c1ccccc1", "%", 75.96],
  ["CC(=O)Oc1ccc2c(COC(=O)c3ccc(Cl)cc3)cc(=O)oc2c1", "%", 53.505],
  ["COc1ccccc1C(=O)OCc1cc(=O)oc2cc(OC(C)=O)ccc12", "%", 76.72],
  ["COc1ccccc1C(=O)OCc1cc(=O)oc2cc(OCC(=O)c3ccc(Cl)cc3)ccc12", "%", 56.517],
  ["COc1ccccc1C(=O)OCc1cc(=O)oc2cc(OCC(=O)c3ccccc3)ccc12", "%", 73.69],
  ["O=C(OCc1cc(=O)oc2cc(O)ccc12)c1ccc(Cl)cc1", "%", 76.24]
]}

###

# System: MDA-MB-231
# protocol.description: MTT cytotoxicity assay, MDA-MB-231
# experimental.context: MDA, 1.6ug (log conc. 0.19)

{"columns": ["molecule", "subject.of.test", "% viability (%)"],
 "data": [
  ["COc1ccccc1C(=O)OCc1cc(=O)oc2cc(O)ccc12 [Compound 4]", "MDA-MB-231", 51.538],
  ["O=C(OCc1cc(=O)oc2cc(O)ccc12)c1ccc(Cl)cc1 [Compound 3]", "MDA-MB-231", 65.98],
  ["O=C(COc1ccc2c(COC(=O)c3ccccc3)cc(=O)oc2c1)c1ccccc1 [Compound 7]", "MDA-MB-231", 68.64],
  ["O=C(COc1ccc2c(COC(=O)c3ccc(Cl)cc3)cc(=O)oc2c1)c1ccc(Cl)cc1 [Compound 10]", "MDA-MB-231", 47.375],
  ["COc1ccccc1C(=O)OCc1cc(=O)oc2cc(OCC(=O)c3ccc(Cl)cc3)ccc12 [Compound 12]", "MDA-MB-231", 51.229]
]}

###

# subject.of.test: EGFR (Homo sapiens)
# protocol.description: In vitro EGFR enzyme inhibition assay (ELISA)
# experimental.context: read-out: EGFR %inh
observable: inhibition at 10 pg/mL

{"columns": ["smiles.input", "observable", "reported"],
 "data": [
  ["COc1ccccc1C(=O)OCc1cc(=O)oc2cc(OCC(=O)c3ccccc3)ccc12", "inhibition at 10 pg/mL", "7.8%"],
  ["CC(=O)Oc1ccc2c(COC(=O)c3ccc(Cl)cc3)cc(=O)oc2c1", "inhibition at 10 pg/mL", "18%"],
  ["COc1ccccc1C(=O)OCc1cc(=O)oc2cc(OCC(=O)c3ccc(Cl)cc3)ccc12", "inhibition at 10 pg/mL", "32%"],
  ["O=C(COc1ccc2c(CCl)cc(=O)oc2c1)c1ccccc1", "inhibition at 10 pg/mL", "29%"]
]}

###

# System: MDA-MB-231
# protocol.description: MTT cytotoxicity assay, MDA-MB-231
# experimental.context: MDA, 6.25ug (log conc. 0.8)

{"columns": ["smiles.input", "% viability, %"],
 "data": [
  ["COc1ccccc1C(=O)OCc1cc(=O)oc2cc(O)ccc12", 43.254],
  ["CC(=O)Oc1ccc2c(COC(=O)c3ccccc3)cc(=O)oc2c1", 52.297],
  ["COc1ccccc1C(=O)OCc1cc(=O)oc2cc(OC(C)=O)ccc12", 56.927],
  ["O=C(COc1ccc2c(CCl)cc(=O)oc2c1)c1ccc(Cl)cc1", 56.509]
]}

###

# protocol.description: in vitro
# experimental.context: human
observable: viability at 48 h, 100 ug (%)

{"columns": ["molecule", "units.label", "reported"],
 "data": [
  ["O=c1cc(CCl)c2ccc(O)cc2o1 [Compound 1, 4-chloromethyl-7-hydroxycoumarin]", "%", 50.1]
]}

###

# Test system: MCF-7
# protocol.description: MTT cytotoxicity assay, MCF-7
# experimental.context: MCF7, 0.4ug
observable: % viability (%)

{"columns": ["compound", "units.label", "reported"],
 "data": [
  ["O=C(COc1ccc2c(CCl)cc(=O)oc2c1)c1ccccc1", "%", 67.523],
  ["O=C(OCc1cc(=O)oc2cc(O)ccc12)c1ccc(Cl)cc1", "%", 72.04],
  ["COc1cccc2c1C(=O)c1c(O)c3c(c(O)c1C2=O)C[C@@](O)(C(=O)CO)C[C@@H]3O[C@H]1C[C@H](N)[C@H](O)[C@H](C)O1 [Doxorubicin, reference compound]", "%", 62.95],
  ["O=C(COc1ccc2c(COC(=O)c3ccccc3)cc(=O)oc2c1)c1ccccc1", "%", 83.43],
  ["O=C(OCc1cc(=O)oc2cc(O)ccc12)c1ccccc1", "%", 58.765],
  ["O=C(COc1ccc2c(COC(=O)c3ccccc3)cc(=O)oc2c1)c1ccc(Cl)cc1", "%", 61.556],
  ["COc1ccccc1C(=O)OCc1cc(=O)oc2cc(OCC(=O)c3ccccc3)ccc12", "%", 86.03],
  ["O=C(COc1ccc2c(COC(=O)c3ccc(Cl)cc3)cc(=O)oc2c1)c1ccc(Cl)cc1", "%", 85.616],
  ["COc1ccccc1C(=O)OCc1cc(=O)oc2cc(OCC(=O)c3ccc(Cl)cc3)ccc12", "%", 65.22],
  ["CC(=O)Oc1ccc2c(COC(=O)c3ccccc3)cc(=O)oc2c1", "%", 80.82]
]}

###

# reported Percentage above Reference IC50 (potency relative to erlotinib); entries follow
# subject.of.test: EGFR (Homo sapiens)
# protocol.description: In vitro EGFR enzyme inhibition assay (ELISA)
# experimental.context: reference Erlotinib
observable: Percentage above Reference IC50 (potency relative to erlotinib) (%)

{"columns": ["molecule", "reported"],
 "data": [
  ["COc1ccccc1C(=O)OCc1cc(=O)oc2cc(OCC(=O)c3ccc(Cl)cc3)ccc12 [Compound 12]", 81.92],
  ["O=C(COc1ccc2c(CCl)cc(=O)oc2c1)c1ccccc1 [Compound 5]", 54.886],
  ["O=C(COc1ccc2c(CCl)cc(=O)oc2c1)c1ccc(Cl)cc1 [Compound 6]", 54.545],
  ["O=C(OCc1cc(=O)oc2cc(O)ccc12)c1ccc(Cl)cc1 [Compound 3]", 8.624],
  ["COc1ccccc1C(=O)OCc1cc(=O)oc2cc(O)ccc12 [Compound 4]", 19.178],
  ["COc1ccccc1C(=O)OCc1cc(=O)oc2cc(OCC(=O)c3ccccc3)ccc12 [Compound 11]", 7.91],
  ["CC(=O)Oc1ccc2c(COC(=O)c3ccccc3)cc(=O)oc2c1 [Compound 13]", 23.14]
]}
